Attribution: the supplement of paper PMC10567573

Please provide measured protein stability index for the entries that follow.
B1: WDFY2 (parent)
chain: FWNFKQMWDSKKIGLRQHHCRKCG

Variants of: B1
ASSAY_EXPLANATION: protein stability index of a GFP-peptide fusion (GPS, HEK-293T) (PSI 1-6); higher = more stable;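 also: lentivirally expressed fusions sorted by FACS into six bins by GFP to DsRed ratio, PSI derived from sequencing read proportions per bin multiplied by bin number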
DETAILS: c terminus: a fixed tail appended
Field format: numeric only.

[in] Fill in the blank: the reported protein stability index of FWNFKQMWDSKKIGLRQHQCRKCG is ____.
[out] 1.87

[in] Fill in the blank: the reported protein stability index of FWNFKQMWDSKKWGLRQHHCRKCG is ____.
[out] 1.67

[in] Fill in the blank: the reported protein stability index of FWNDKQMWDSKKIGLRQHHCRKCG is ____.
[out] 2.27

[in] Fill in the blank: the reported protein stability index of FWNFKQMYDSKKIGLRQHHCRKCG is ____.
[out] 2.04

[in] Fill in the blank: the reported protein stability index of FWNFKQMWYSKKIGLRQHHCRKCG is ____.
[out] 2.95

[in] Fill in the blank: the reported protein stability index of FWTFKQMWDSKKIGLRQHHCRKCG is ____.
[out] 1.8

[in] Fill in the blank: the reported protein stability index of FWNFKQMWDSKKIGLRTHHCRKCG is ____.
[out] 1.2

[in] Fill in the blank: the reported protein stability index of FWNFKQMDDSKKIGLRQHHCRKCG is ____.
[out] 3

[in] Fill in the blank: the reported protein stability index of FWNFKQMWDSKKIGLRQHHCRKCE is ____.
[out] 2.13

[in] Fill in the blank: the reported protein stability index of FWNFKQMWDSKKIGLRQHLCRKCG is ____.
[out] 2.02

[in] Fill in the blank: the reported protein stability index of FRNFKQMWDSKKIGLRQHHCRKCG is ____.
[out] 2.61

[in] Fill in the blank: the reported protein stability index of FWNFKQMWDSKKIGLRQHRCRKCG is ____.
[out] 2.39

[in] Fill in the blank: the reported protein stability index of FWNFKQMWDSKKAGLRQHHCRKCG is ____.
[out] 2.52

[in] Fill in the blank: the reported protein stability index of FWNFKQMWDSKKIGLRQHHCRKCS is ____.
[out] 2.39

[in] Fill in the blank: the reported protein stability index of FWNFKQMWDSKKIPLRQHHCRKCG is ____.
[out] 1.46

[in] Fill in the blank: the reported protein stability index of FWNFKQMWDSKKIGLHQHHCRKCG is ____.
[out] 2.06

[in] Fill in the blank: the reported protein stability index of FWNFKQMWDSKKIGLRQHHCRNCG is ____.
[out] 1.57

[in] Fill in the blank: the reported protein stability index of FWNFKQMWDSKKCGLRQHHCRKCG is ____.
[out] 2.72

[in] Fill in the blank: the reported protein stability index of FWNFKQMWDSKKIGLRQHHCRKSG is ____.
[out] 1.78

[in] Fill in the blank: the reported protein stability index of FWNFKQMWKSKKIGLRQHHCRKCG is ____.
[out] 2.05
